experiment: Single-dose, dose escalation study Part 1: pharmacokinetics of plasma/urine cromolyn sodium (DSCG); assay type: in vivo; details: human, plasma, inhaled, 40 mg, 40 mg dose using the 40L device (text repeat of Table 2, PA-101)
test-readout: AUC (ng·h/mL)
Give bare numbers, in ng·h/mL.

Entry O=C(O)c1cc(=O)c2c(OCC(O)COc3cccc4oc(C(=O)O)cc(=O)c34)cccc2o1 [cromolyn sodium] has what AUC? 212
